# System: OVCAR-5 ovarian
# run_description: NCI-60 one-dose screen, 48 h (100 = growth as untreated, 0 = no growth, -100 = all killed)
# test_conditions: 10 µM unless noted
The panel holds about 83,000 compounds, 20% with a hit somewhere; the sample as a whole holds those more often.
assay_metric: growth (%)
One number for each entry, in %.

compound: Cn1nc(CC#N)c2c(=N)n(N)cnc21
growth (%): 93.5
//
compound: S=c1cc(S)c2cc(Br)ccc2[nH]1
growth (%): 114

Hey, can you go through the list below and give me growth for every item?
1. COc1cc2c(=O)n(CCCN(C)C)c3c4cc5c(cc4ccc3c2cc1OC)OCO5
2. O=S(=O)(NCCNc1nccc(-c2c(-c3cccc(O)c3)nc3occn23)n1)c1ccccc1
3. NC(=NCc1ccccc1)C(N=Nc1ccccc1)C(=O)NCc1ccccc1 (stereo not drawn)
4. O=C(/C(=C\c1ccc([N+](=O)[O-])cc1)S(=O)Cc1ccc(Cl)cc1)c1ccc(Cl)cc1 (stereo not drawn)
5. COc1cc2c(c(OC)c1OC)CCC(c1cccc(NC(=O)c3cccc(Br)c3)c1)O2 (stereo not drawn)

Result ::
112
117
100
73.6
98.5

I have 4 compounds here; please give me growth for each one.
1. COCc1cnccc1NC1CCCCCC1
2. Cc1ccc(NC(=O)c2cc(-c3nc4ccccc4s3)c(=O)n(NS(=O)(=O)c3ccc(Cl)cc3)c2N)cc1
3. CCN(c1ccccc1)S(=O)(=O)c1cc([N+](=O)[O-])ccc1Cl
4. O=S(=O)(NCCCNc1nccc(-c2c(-c3cccc(F)c3)nc3sccn23)n1)c1cccc2ccccc12

Result ::
[108, 110, 67.4, 80.9]

----------
Would you kindly list growth for each of these compounds?
# Tested on: KM12 colon
# run_description: NCI-60 one-dose screen, 48 h (100 = growth as untreated, 0 = no growth, -100 = all killed)
# test_conditions: 10 µM unless noted
This is part of a sample that, as a whole, favours compounds with a hit. Of some 83,000 tested, about 20% had one in any assay.
Answers are plain numbers, in %.

compound: O=S(=O)(NCCNc1nccc(-c2c(-c3cccc(F)c3)nc3sccn23)n1)c1ccccc1
target_or_test_system: KM12 colon
assay_metric: growth
scale_unit: %
quantitative_result: 28.8

Report growth for every entry below.
1. COc1cc2cc(CN3CCN(c4nccc(-c5ccc6ccccc6c5)n4)CC3)c(=O)[nH]c2cc1OC
2. CCCCCCNC(=O)Oc1ccc(/C(=C(\C)c2ccccc2)c2ccc(OCCCN(C)C)cc2)cc1
3. O=C(O)c1ccc2c(c1)C(=O)N(Cc1ccccc1)C2=O
4. NC(=O)Nc1ccc(-n2cnc3cc(-c4ccc(O)cc4)ccc32)cc1
5. CCCCCN1C=C/C(=C\C(=O)N2CCCc3ccccc32)c2ccccc21
6. COc1ccc(C(=O)c2cc(OC)c(OC)c(OC)c2)cc1O

Result ::
1. 83.4
2. 74.3
3. 104
4. 21.8
5. 90.4
6. 9.38

Required: growth, one value per compound below.
1. O=S(=O)(NCCCNc1nccc(-c2c(-c3cccc(F)c3)nc3sccn23)n1)c1cccc2ccccc12
2. N#Cc1c(NC(=O)NCc2ccccc2)sc2c1CCCCC2

Result ::
[26, 12.6]

Could you tell me growth for each of these compounds? They are listed below.
1. O=C1Nc2cc(-c3ccc(NC(=O)C4CC4)cc3)ccc2/C1=C/c1ccc[nH]1
2. COc1ccc(/C=C(\C#N)n2nc3cccc(F)c3n2)cc1
3. COc1cccc(/C=N/NC(=O)c2cnn3c2NC(c2ccccc2)C3)c1Oc1ccccc1 (configuration not stated)
4. O=Cc1cc2ccccc2nc1Oc1ccc(C(F)(F)F)cc1
5. Cc1ccc(S(=O)(=O)Nn2c3c(cc(-c4nc5ccccc5s4)c2=O)CCCCCC3)cc1
6. Brc1ccc2[nH]cc(-c3cncn3CCc3ccccc3)c2c1
7. Nc1nc(Nc2ccccc2SSc2ccccc2Nc2nc(N)nc(-c3ccc(C(F)(F)F)cc3)n2)nc(-c2ccc(C(F)(F)F)cc2)n1

Result ::
1: 39.8; 2: 93.7; 3: 51.8; 4: 92.4; 5: 101; 6: 68; 7: 44.8
